Target: G-protein coupled receptor 35 (Homo sapiens, UniProt Q9HC97)
Sequence (Q9HC97 whole entry): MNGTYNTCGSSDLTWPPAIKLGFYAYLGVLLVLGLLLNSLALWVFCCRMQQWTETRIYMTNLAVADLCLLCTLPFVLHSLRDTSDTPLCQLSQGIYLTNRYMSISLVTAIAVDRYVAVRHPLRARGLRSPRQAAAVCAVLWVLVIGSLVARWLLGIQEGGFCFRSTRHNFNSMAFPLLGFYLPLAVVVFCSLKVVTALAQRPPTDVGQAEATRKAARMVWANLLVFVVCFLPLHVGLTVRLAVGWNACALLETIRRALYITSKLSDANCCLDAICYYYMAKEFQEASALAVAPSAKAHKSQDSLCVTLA
Experiment: Desensitization of GPR35 in human HT-29 cells assessed as inhibition of zaprinast-induced dynamic mass redistribution pretreated for 1 hr followed by zaprinast stimulation
assay-readout: log10 IC50 (log10 of the value in nM)
Values below are the log10 of the recorded IC50, with nM as the unit.

>  <smiles-representation>
O=C(Nc1cc(Br)ccc1-c1nnn[nH]1)c1ccccc1Cl

>  <quantitative-result>
2.61

$$$$
>  <smiles-representation>
COc1ccc(C(=O)Nc2cc(Br)ccc2-c2nnn[nH]2)c(F)c1

>  <quantitative-result>
1.15

$$$$
>  <smiles-representation>
O=C(Nc1cc(Br)ccc1-c1nnn[nH]1)c1ccc(C(F)(F)F)cc1

>  <quantitative-result>
3.13

$$$$
>  <smiles-representation>
O=C(Nc1cc(Br)ccc1-c1nnn[nH]1)c1cccc(F)c1

>  <quantitative-result>
2.32

$$$$
>  <smiles-representation>
O=C(Nc1cc(Br)ccc1-c1nnn[nH]1)c1cccc(C(F)(F)F)c1

>  <quantitative-result>
3.11

$$$$

Next up:
Challenge: Please supply the value of reported log10 IC50 for the item "O=C(Nc1cc(Br)ccc1-c1nnn[nH]1)c1ccccc1F"
Response given: 2.23
